assay: Binding affinity to N-terminal hexahistidine-tagged recombinant human Mint2-PARM (364 to 570 residues) in presence of probe [(TAMRA)-NNG-QNGYENPTYKFFEQMQN] by fluorescense polarization assay
measurementName: pKi
The meaning of pKi here: minus log10 of the concentration in molar units.

// H-NGYENPTYKFFE-OH : pKi value = 5.40

====

assay: Binding affinity to N-terminal hexahistidine-tagged recombinant human Mint2-PARM (364 to 570 residues) in presence of probe [(TAMRA)-NNG-QNGYENPTYKFFEQMQN] by fluorescense polarization assay
Where a SMILES comes first, the peptide text is derived from it. Bridges are numbered along the chain shown (N, C = ends). Triazole bridges read from a SMILES are 1,4-linked. [ ]: non-standard residue; d: D form. Orn(N3) = [N-]=[N+]=NCCC[C@H](N)C(=O)O; Hpra = C#CCC[C@H](N)C(=O)O
measurementName: Ki
Answer with the value and then the unit.

Form field Ki, entry NCCCC[C@H]1NC(=O)[C@@H](Cc2ccc(O)cc2)NC(=O)[C@H](NC(=O)[C@@H]2CCCN2C(=O)[C@@H](CC(N)=O)NC(=O)[C@H](CCC(=O)O)NC(=O)[C@H](Cc2ccc(O)cc2)NC(=O)CNC(=O)[C@H](N)CC(N)=O)CC(=O)NCC[C@H](C(=O)N[C@H](CCC(=O)O)C(=O)O)NC(=O)[C@@H](Cc2ccccc2)NC1=O : 214 µM

Looking up NCCCC[C@@H]1NC(=O)[C@H](Cc2ccc(O)cc2)NC(=O)[C@@H](NC(=O)[C@@H]2CCCN2C(=O)[C@H](CC(N)=O)NC(=O)[C@H](CCC(=O)O)NC(=O)[C@H](Cc2ccc(O)cc2)NC(=O)CNC(=O)[C@@H](N)CC(N)=O)CCCn2cc(nn2)CC[C@@H](C(=O)N[C@@H](CCC(=O)O)C(=O)O)NC(=O)[C@H](Cc2ccccc2)NC1=O (H-NGYENP[Orn(N3)]YKF[Hpra]E-OH; triazole 7-11) , I found its Ki recorded as 64.6 µM

The compound listed as NCCCC[C@@H]1NC(=O)[C@H](Cc2ccc(O)cc2)NC(=O)[C@@H](NC(=O)[C@@H]2CCCN2C(=O)[C@H](CC(N)=O)NC(=O)[C@H](CCC(=O)O)NC(=O)[C@H](Cc2ccc(O)cc2)NC(=O)CNC(=O)[C@@H](N)CC(N)=O)CCCCNC(=O)C[C@@H](C(=O)N[C@@H](CCC(=O)O)C(=O)O)NC(=O)[C@H](Cc2ccccc2)NC1=O (H-NGYENPKYKFDE-OH; lactam 7-11) shows Ki equal to 1 µM

====

system: Streptomyces griseus protease; assay: Stability of compound in PBS at pH 7.4 assessed as Streptomyces griseus protease mediated degradation by measuring half life at 100 uM measured after 120 mins by RP UPLC analysis; format: ADME
measurementName: half-life at 100 µM

For this compound ( NCCCC[C@@H]1NC(=O)[C@H](Cc2ccc(O)cc2)NC(=O)[C@@H](NC(=O)[C@@H]2CCCN2C(=O)[C@H](CC(N)=O)NC(=O)[C@H](CCC(=O)O)NC(=O)[C@H](Cc2ccc(O)cc2)NC(=O)CNC(=O)[C@@H](N)CC(N)=O)CCSCc2ccc(cc2)CSCC[C@@H](C(=O)N[C@@H](CCC(=O)O)C(=O)O)NC(=O)[C@H](Cc2ccccc2)NC1=O ), measured half-life at 100 µM is > 2 h

====

test: Drug uptake in human HeLa cells assessed as drug penetration incubated for 4 hrs by CA-TAMRA based CAPA assay; assay type: ADME, cell-based
measurementName: EC50 (µM)
State the answer as a number, implicitly in µM.

The compound listed as NCCCC[C@@H]1NC(=O)[C@H](Cc2ccc(O)cc2)NC(=O)[C@@H](NC(=O)[C@@H]2CCCN2C(=O)[C@H](CC(N)=O)NC(=O)[C@H](CCC(=O)O)NC(=O)[C@H](Cc2ccc(O)cc2)NC(=O)CNC(=O)[C@@H](N)CC(N)=O)CCSCc2ccc(cc2)CSCC[C@@H](C(=O)N[C@@H](CCC(=O)O)C(=O)O)NC(=O)[C@H](Cc2ccccc2)NC1=O shows EC50 equal to 14.5

====

assay: Binding affinity to N-terminal hexahistidine-tagged recombinant human Mint2-PARM (364 to 570 residues) by ITC method
Where a SMILES comes first, the peptide text is derived from it. Bridges are numbered along the chain shown (N, C = ends). Triazole bridges read from a SMILES are 1,4-linked. [ ]: non-standard residue; d: D form. Lys(N3) = [N-]=[N+]=NCCCC[C@H](N)C(=O)O; Pra = C#CC[C@H](N)C(=O)O
Please go through the items and note down their pKd.
Here pKd is given on a logarithmic scale as minus log10 of the concentration in mol/L.

Input NCCCC[C@@H]1NC(=O)[C@H](Cc2ccc(O)cc2)NC(=O)[C@@H](NC(=O)[C@@H]2CCCN2C(=O)[C@H](CC(N)=O)NC(=O)[C@H](CCC(=O)O)NC(=O)[C@H](Cc2ccc(O)cc2)NC(=O)CNC(=O)[C@@H](N)CC(N)=O)CCSCc2ccc(cc2)CSCC[C@@H](C(=O)N[C@@H](CCC(=O)O)C(=O)O)NC(=O)[C@H](Cc2ccccc2)NC1=O . Output pKd: 5.98

Short answer for C[C@@]1(C(=O)N[C@@H](CCC(=O)O)C(=O)O)CCC/C=C\CCC[C@](C)(NC(=O)[C@@H]2CCCN2C(=O)[C@H](CC(N)=O)NC(=O)[C@H](CCC(=O)O)NC(=O)[C@@H](Cc2ccc(O)cc2)NC(=O)CNC(=O)[C@H](N)CC(N)=O)C(=O)N[C@@H](Cc2ccc(O)cc2)C(=O)N[C@@H](CCCCN)C(=O)N[C@@H](Cc2ccccc2)C(=O)N1 : pKd was 6.62

Consider NCCCC[C@@H]1NC(=O)[C@H](Cc2ccc(O)cc2)NC(=O)[C@@H](NC(=O)[C@@H]2CCCN2C(=O)[C@H](CC(N)=O)NC(=O)[C@H](CCC(=O)O)NC(=O)[C@H](Cc2ccc(O)cc2)NC(=O)CNC(=O)[C@@H](N)CC(N)=O)CCCCNC(=O)C[C@@H](C(=O)N[C@@H](CCC(=O)O)C(=O)O)NC(=O)[C@H](Cc2ccccc2)NC1=O (H-NGYENPKYKFDE-OH; lactam 7-11) . Its measured pKd is 5.24

// field: pKd; key: NCCCC[C@@H]1NC(=O)[C@H](Cc2ccc(O)cc2)NC(=O)[C@@H](NC(=O)[C@@H]2CCCN2C(=O)[C@H](CC(N)=O)NC(=O)[C@H](CCC(=O)O)NC(=O)[C@H](Cc2ccc(O)cc2)NC(=O)CNC(=O)[C@@H](N)CC(N)=O)CCCCn2cc(nn2)C[C@@H](C(=O)N[C@@H](CCC(=O)O)C(=O)O)NC(=O)[C@H](Cc2ccccc2)NC1=O (H-NGYENP[Lys(N3)]YKF[Pra]E-OH; triazole 7-11) ; value = 6.00

====

Would you mind telling me the reported pEC50 of each entry?
test: Drug uptake in human HeLa cells assessed as drug penetration incubated for 4 hrs by CA-TAMRA based CAPA assay; assay type: ADME, cell-based
Where a SMILES comes first, the peptide text is derived from it. Bridges are numbered along the chain shown (N, C = ends).
Remember the convention: pEC50 equals -log10 of concentration in molar.

The measured pEC50 associated with C[C@@]1(C(=O)N[C@H](CCC(=O)O)C(=O)O)CCC/C=C\CCC[C@](C)(NC(=O)[C@@H]2CCCN2C(=O)[C@H](CC(N)=O)NC(=O)[C@H](CCC(=O)O)NC(=O)[C@H](Cc2ccc(O)cc2)NC(=O)CNC(=O)[C@H](CC(N)=O)NC(=O)CCC(=O)NCCOCCOCCCCCCCl)C(=O)N[C@@H](Cc2ccc(O)cc2)C(=O)N[C@@H](CCCCN)C(=O)N[C@@H](Cc2ccccc2)C(=O)N1 reads 4.11

The reported pEC50 of the compound NCCCC[C@@H]1NC(=O)[C@H](Cc2ccc(O)cc2)NC(=O)[C@@H](NC(=O)[C@@H]2CCCN2C(=O)[C@H](CC(N)=O)NC(=O)[C@H](CCC(=O)O)NC(=O)[C@H](Cc2ccc(O)cc2)NC(=O)CNC(=O)[C@H](CC(N)=O)NC(=O)CCC(=O)NCCOCCOCCCCCCCl)CCSCc2ccc(cc2)CSCC[C@@H](C(=O)N[C@H](CCC(=O)O)C(=O)O)NC(=O)[C@H](Cc2ccccc2)NC1=O was 4.84

Lab note: NCCCC[C@@H]1NC(=O)[C@H](Cc2ccc(O)cc2)NC(=O)[C@@H](NC(=O)[C@@H]2CCCN2C(=O)[C@H](CC(N)=O)NC(=O)[C@H](CCC(=O)O)NC(=O)[C@H](Cc2ccc(O)cc2)NC(=O)CNC(=O)[C@@H](N)CC(N)=O)CCCCNC(=O)C[C@@H](C(=O)N[C@@H](CCC(=O)O)C(=O)O)NC(=O)[C@H](Cc2ccccc2)NC1=O (H-NGYENPKYKFDE-OH; lactam 7-11) gave pEC50 of 4.11

From: ChEMBL document CHEMBL5380799
